Item-by-item account of Raw Signal
- tested_on: Human IP6K1 (Homo sapiens, UniProt Q92551)
- Construct: GST (N, cleaved yes); made in house; host or cells: C43 E. coli, pGEX-6P-2
- Sequence (Q92551 whole entry): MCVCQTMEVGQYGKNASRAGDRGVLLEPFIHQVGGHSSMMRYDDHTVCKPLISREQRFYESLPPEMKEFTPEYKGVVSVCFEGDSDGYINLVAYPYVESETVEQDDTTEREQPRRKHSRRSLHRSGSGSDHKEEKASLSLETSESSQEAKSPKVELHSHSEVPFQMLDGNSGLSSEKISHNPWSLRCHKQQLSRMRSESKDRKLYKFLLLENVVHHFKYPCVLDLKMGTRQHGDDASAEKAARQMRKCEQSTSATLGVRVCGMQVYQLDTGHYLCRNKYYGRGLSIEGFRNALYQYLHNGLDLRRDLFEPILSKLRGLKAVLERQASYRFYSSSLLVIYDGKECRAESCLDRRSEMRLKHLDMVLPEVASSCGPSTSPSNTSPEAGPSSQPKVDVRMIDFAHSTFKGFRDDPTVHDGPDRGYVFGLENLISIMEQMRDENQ
- assay_explanation: IP6K1 high-throughput screen of the Sigma LOPAC (ADP-Glo Max, single point);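 also: final compound concentration 10µM in 5% DMSO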
- Type: biochemical
- details: LOPAC single-point screen, ADP-Glo Max raw signal per well
Structures can show the parent of a compound that is named as a salt.
readout_kind: Raw Signal

# molecule, recorded_result
measured = [
    ("CC(N)c1cccc(Cl)c1Cl.Cl (racemic)", 54173),
    ("CCn1ccnc1CC1COc2ccccc2O1 (stereo not shown) [Imiloxan hydrochloride]", 52626),
    ("C[C@]12CCC(=O)C=C1CC[C@@H]1[C@@H]2CC[C@]2(C)C(=O)CC[C@@H]12 [4-Androstene-3,17-dione]", 58885),
    ("Nc1ncnc2c1ncn2[C@@H]1O[C@H](C(=O)NC2CC2)[C@@H](O)[C@H]1O [5 -(N-Cyclopropyl)carboxamidoadenosine]", 57761),
    ("CC(=O)SCC[N+](C)(C)C.[Cl-] [Acetylthiocholine chloride]", 58613),
    ("CC[N+](CC)(CC)CCOc1cccc(OCC[N+](CC)(CC)CC)c1OCC[N+](CC)(CC)CC [Gallamine triethiodide]", 56632),
    ("Cl.Fc1ccc(C(OCCCc2c[nH]cn2)c2ccc(F)cc2)cc1", 51668),
    ("NC(=O)c1cc(N2CC2)c([N+](=O)[O-])cc1[N+](=O)[O-] [CB 1954]", 55279),
    ("Nc1nc(N)c2nc(CNc3ccc(C(=O)N[C@@H](CCC(=O)O)C(=O)O)cc3)cnc2n1 [Aminopterin]", 55514),
    ("CN(CCOc1ccc(C[C@H](Nc2ccccc2C(=O)c2ccccc2)C(=O)O)cc1)c1ccccn1 [GW1929]", 55887),
]
